# assayed.system: GMPPNP-loaded H-Ras or GTP-loaded K-Ras
# procedure.details: FP competition, displacement of probe R4007 from Ras
pIC50: −log10 of the molar value. *1 amine or outer side, *2 acyl side, *3 side chain or, on linkers, in order; H or OH if unused. Bridges are numbered along the chain shown (N, C = ends). Where no end group is shown, it is not given here. [ ]: non-standard residue; d: D form. TDSPA = (R)-2-amino-3-(tert-butyldisulfanyl)propanoic acid, CC(C)(C)SSC[C@H](N[*:1])C(=O)[*:2]; Trp(7-aza) = N[C@@H](Cc1c[nH]c2ncccc12)C(=O)O; NMePhe(4-F) = CN[C@@H](Cc1ccc(F)cc1)C(=O)O; mXylylene = c1cc(C[*:1])cc(C[*:2])c1; Glutaryl = O=C(CCCC(=O)[*:2])[*:1]; dPhg = N[C@@H](C(=O)O)c1ccccc1; Phg = N[C@H](C(=O)O)c1ccccc1; Tle = CC(C)(C)[C@H](N)C(=O)O; NMeA = CN[C@@H](C)C(=O)O; Nva = CCC[C@H](N)C(=O)O; Sar = CNCC(=O)O
Outcome label depends on pIC50 relative to 8: at/above gives criterion met, below gives criterion not met.

Query: State whether the measured pIC50 reaches 8, counting equality as reaching it, for Ac-[Nva]CA[Tle]KH[NMeA][Phg][Trp(7-aza)]Y[NMePhe(4-F)][Sar]C-NH2 (linker 2-13 via mXylylene; SMILES CCC[C@H](NC(C)=O)C(=O)N[C@H]1CSCc2cccc(c2)CSC[C@@H](C(N)=O)NC(=O)CN(C)C(=O)[C@H](Cc2ccc(F)cc2)N(C)C(=O)[C@H](Cc2ccc(O)cc2)NC(=O)[C@H](Cc2c[nH]c3ncccc23)NC(=O)[C@H](c2ccccc2)NC(=O)[C@H](C)N(C)C(=O)[C@H](Cc2c[nH]cn2)NC(=O)[C@H](CCCCN)NC(=O)[C@H](C(C)(C)C)NC(=O)[C@H](C)NC1=O) [R4152]
Reply: criterion not met

Query: Does the reported pIC50 for [Nva]CY[Tle]KH[NMeA][Phg][Trp(7-aza)]Y[NMePhe(4-F)][Sar]C[dS]KG[TDSPA]VIM (linker 2-13 via mXylylene) [R4113] fall at or above the 8 mark?
Reply: criterion not met

Query: Record Ac-[Nva]CY[Tle]KA[NMeA][dPhg][Trp(7-aza)]Y[NMePhe(4-F)][Sar]C-NH2 (linker 2-13 via mXylylene; SMILES CCC[C@H](NC(C)=O)C(=O)N[C@H]1CSCc2cccc(c2)CSC[C@@H](C(N)=O)NC(=O)CN(C)C(=O)[C@H](Cc2ccc(F)cc2)N(C)C(=O)[C@H](Cc2ccc(O)cc2)NC(=O)[C@H](Cc2c[nH]c3ncccc23)NC(=O)[C@@H](c2ccccc2)NC(=O)[C@H](C)N(C)C(=O)[C@H](C)NC(=O)[C@H](CCCCN)NC(=O)[C@H](C(C)(C)C)NC(=O)[C@H](Cc2ccc(O)cc2)NC1=O) [R4153] ; criterion: pIC50 no lower than 8. Met?
Reply: criterion not met

Query: Is the recorded value of pIC50 equal to or greater than 8 for this binder? Glutaryl-[Nva]CY[Tle]KH[NMeA][Phg][Trp(7-aza)]Y[NMePhe(4-F)][Sar]C-NH2 (linker 2-13 via mXylylene; SMILES CCC[C@H](NC(=O)CCCC(=O)O)C(=O)N[C@H]1CSCc2cccc(c2)CSC[C@@H](C(N)=O)NC(=O)CN(C)C(=O)[C@H](Cc2ccc(F)cc2)N(C)C(=O)[C@H](Cc2ccc(O)cc2)NC(=O)[C@H](Cc2c[nH]c3ncccc23)NC(=O)[C@H](c2ccccc2)NC(=O)[C@H](C)N(C)C(=O)[C@H](Cc2c[nH]cn2)NC(=O)[C@H](CCCCN)NC(=O)[C@H](C(C)(C)C)NC(=O)[C@H](Cc2ccc(O)cc2)NC1=O) [R4103]
Reply: criterion met

Query: Is the recorded value of pIC50 equal to or greater than 8 for this binder? Ac-[Nva]CY[Tle]KH[NMeA][Phg][Trp(7-aza)]Y[NMePhe(4-F)][Sar]C[dS]KGCVIM (linker 2-13 via mXylylene) [R4105]
Reply: criterion met
